Could you please report measured MIC for the items listed next?
test system: E. coli mL308 225; assay: In Vitro Anti-Bacterial Activity Assay (MIC), gram negative; format: cell-based; details: Escherichia coli, ML308225, 18 h, gram negative bacteria; read-out: Antibiotic Activity Gram − (MIC)

| CHEMICAL_STRING | RECORDED_VALUE |
| --- | --- |
| CCCOC(=O)Nc1ccc(-c2ccc(O)c3c2C[C@H]2C[C@H]4[C@H](N(C)C)C(O)=C(C(N)=O)C(=O)[C@@]4(O)C(O)=C2C3=O)cc1 | < 4 µg/mL |
| CC(=O)c1cc(C(C)(C)C)c(O)c2c1C[C@H]1C[C@H]3[C@H](N(C)C)C(O)=C(C(N)=O)C(=O)[C@@]3(O)C(O)=C1C2=O | < 4 µg/mL |
| CCCCOC(=O)Nc1cc(N(C)C)c2c(c1O)C(=O)C1=C(O)[C@]3(O)C(=O)C(C(N)=O)=C(O)[C@@H](N(C)C)[C@@H]3C[C@@H]1C2 | < 4 µg/mL |
| CCN(CC)c1cc(CN2CCC(F)CC2)c(O)c2c1C[C@H]1C[C@H]3[C@H](N(C)C)C(O)=C(C(N)=O)C(=O)[C@@]3(O)C(O)=C1C2=O | < 4 µg/mL |
| CC(=O)Nc1cc(-c2ccccn2)c2c(c1O)C(=O)C1=C(O)[C@]3(O)C(=O)C(C(N)=O)=C(O)[C@@H](N(C)C)[C@@H]3C[C@@H]1C2 | > 4 µg/mL |
| C[C@H]1c2ccc(N)c(O)c2C(=O)C2=C(O)[C@]3(O)C(=O)C(C(N)=O)=C(O)[C@@H](N(C)C)[C@@H]3[C@@H](O)[C@@H]21 | > 4 µg/mL |
| CN(C)Cc1cc(-c2ccoc2)c2c(c1O)C(=O)C1=C(O)[C@]3(O)C(=O)C(C(N)=O)=C(O)[C@@H](N(C)C)[C@@H]3C[C@@H]1C2 | > 4 µg/mL |
| CN(C)[C@@H]1C(O)=C(C(N)=O)C(=O)[C@@]2(O)C(O)=C3C(=O)c4c(O)c(-c5ccc6c(c5)OCO6)cc(-c5ccc6c(c5)OCO6)c4C[C@H]3C[C@@H]12 | > 4 µg/mL |

Batch: MIC for all items listed.
1. CC(=O)c1ccc(-c2cc(N(C)C)c3c(c2O)C(=O)C2=C(O)[C@]4(O)C(=O)C(C(N)=O)=C(O)[C@@H](N(C)C)[C@@H]4C[C@@H]2C3)cc1
2. COC(=O)CCc1cccc(-c2ccc(O)c3c2C[C@H]2C[C@H]4[C@H](N(C)C)C(O)=C(C(N)=O)C(=O)[C@@]4(O)C(O)=C2C3=O)c1
3. CN(C)c1cc(CNCc2cccn2C)c(O)c2c1C[C@H]1C[C@H]3[C@H](N(C)C)C(O)=C(C(N)=O)C(=O)[C@@]3(O)C(O)=C1C2=O
4. CN(C)c1cc(CNc2ccccc2)c(O)c2c1C[C@H]1C[C@H]3[C@H](N(C)C)C(O)=C(C(N)=O)C(=O)[C@@]3(O)C(O)=C1C2=O

> 4 µg/mL
> 4 µg/mL
> 4 µg/mL
> 4 µg/mL

====

Could you please report measured MIC for the items listed next?
system: S. aureus RN450; assay: In Vitro Anti-Bacterial Activity Assay (MIC), gram positive; assay type: cell-based; conditions: Staphylococcus aureus, RN450, 18 h, gram positive bacteria; read-out: Antibiotic Activity Gram + (MIC)

See these solved cases before continuing.
| COMPOUND | TGT | RECORDED_VALUE |
| --- | --- | --- |
| CCOC(=O)CNCc1ccc(-c2ccc(O)c3c2C[C@H]2C[C@H]4[C@H](N(C)C)C(O)=C(C(N)=O)C(=O)[C@@]4(O)C(O)=C2C3=O)c2ccccc12 | S. aureus RN450 | < 4 µg/mL |
| CCN(CC)Cc1cc(N(C)C)c2c(c1O)C(=O)C1=C(O)[C@]3(O)C(=O)C(C(N)=O)=C(O)[C@@H](N(C)C)[C@@H]3C[C@@H]1C2 | S. aureus RN450 | < 4 µg/mL |
| CC(C)ONC(C)c1ccc(O)c2c1C[C@H]1C[C@H]3[C@H](N(C)C)C(O)=C(C(N)=O)C(=O)[C@@]3(O)C(O)=C1C2=O (stereo partly drawn) | S. aureus RN450 | < 4 µg/mL |

Batch: MIC for all items listed.
1. CN(C)c1cc(CNNCC(F)(F)F)c(O)c2c1C[C@H]1C[C@H]3[C@H](N(C)C)C(O)=C(C(N)=O)C(=O)[C@@]3(O)C(O)=C1C2=O
2. CN(C)c1cc(NCc2ccc(O)c(O)c2)c(O)c2c1C[C@H]1C[C@H]3[C@H](N(C)C)C(O)=C(C(N)=O)C(=O)[C@@]3(O)C(O)=C1C2=O
3. CN(C)[C@@H]1C(O)=C(C(N)=O)C(=O)[C@@]2(O)C(O)=C3C(=O)c4c(O)c(-c5ccc6c(c5)OCO6)cc(-c5ccc6c(c5)OCO6)c4C[C@H]3C[C@@H]12

1. < 4 µg/mL
2. < 4 µg/mL
3. < 4 µg/mL

====

test system: S. aureus RN450; assay: In Vitro Anti-Bacterial Activity Assay (MIC), gram positive; format: cell-based; settings: Staphylococcus aureus, RN450, 18 h, gram positive bacteria; read-out: Antibiotic Activity Gram + (MIC)
MEASUREMENT_TYPE: MIC

See these solved cases before continuing.
| CHEMICAL_STRING | MIC |
| --- | --- |
| COc1ccc(CNCCF)cc1-c1ccc(O)c2c1C[C@H]1C[C@H]3[C@H](N(C)C)C(O)=C(C(N)=O)C(=O)[C@@]3(O)C(O)=C1C2=O | < 4 µg/mL |
| CN(C)c1cc(-c2ccc(CN3CCN(CCO)CC3)o2)c(O)c2c1C[C@H]1C[C@H]3[C@H](N(C)C)C(O)=C(C(N)=O)C(=O)[C@@]3(O)C(O)=C1C2=O | < 4 µg/mL |
| CN(C)c1cc(CN2CCC3(CC2)OCCO3)c(O)c2c1C[C@H]1C[C@H]3[C@H](N(C)C)C(O)=C(C(N)=O)C(=O)[C@@]3(O)C(O)=C1C2=O | < 4 µg/mL |
| CN(C)[C@@H]1C(O)=C(C(N)=O)C(=O)[C@@]2(O)C(O)=C3C(=O)c4c(cccc4OCCCO)C[C@H]3C[C@@H]12 | > 4 µg/mL |

Batch: MIC for all items listed.
1. CN(C)c1cc(CNCc2ccc(C(=O)O)cc2)c(O)c2c1C[C@H]1C[C@H]3[C@H](N(C)C)C(O)=C(C(N)=O)C(=O)[C@@]3(O)C(O)=C1C2=O
2. CSCc1cc(-c2ccccn2)c2c(c1O)C(=O)C1=C(O)[C@]3(O)C(=O)C(C(N)=O)=C(O)[C@@H](N(C)C)[C@@H]3C[C@@H]1C2
3. COc1ccc(CNc2cc(N(C)C)c3c(c2O)C(=O)C2=C(O)[C@]4(O)C(=O)C(C(N)=O)=C(O)[C@@H](N(C)C)[C@@H]4C[C@@H]2C3)cc1O
4. COCc1cncc(-c2ccc(O)c3c2C[C@H]2C[C@H]4[C@H](N(C)C)C(O)=C(C(N)=O)C(=O)[C@@]4(O)C(O)=C2C3=O)c1
5. CN(C)[C@@H]1C(O)=C(C(N)=O)C(=O)[C@@]2(O)C(O)=C3C(=O)c4c(O)c(S(=O)(=O)O)cc(Cl)c4C=C3C[C@@H]12
6. CN(C)c1cc(CNCC(=O)O)c(O)c2c1C[C@H]1C[C@H]3[C@H](N(C)C)C(O)=C(C(N)=O)C(=O)[C@@]3(O)C(O)=C1C2=O
7. C[C@H]1c2ccc(-c3cc4ccccc4s3)c(O)c2C(=O)C2=C(O)[C@]3(O)C(=O)C(C(N)=O)=C(O)[C@@H](N(C)C)[C@@H]3[C@@H](O)[C@@H]21
8. CN1CCN(Cc2ccc(-c3cc(N(C)C)c4c(c3O)C(=O)C3=C(O)[C@]5(O)C(=O)C(C(N)=O)=C(O)[C@@H](N(C)C)[C@@H]5C[C@@H]3C4)o2)CC1

1. > 4 µg/mL
2. < 4 µg/mL
3. > 4 µg/mL
4. < 4 µg/mL
5. > 4 µg/mL
6. > 4 µg/mL
7. < 4 µg/mL
8. < 4 µg/mL

====

Could you please report measured MIC for the items listed next?
tested on: E. coli mL308 225; assay: In Vitro Anti-Bacterial Activity Assay (MIC), gram negative; type: cell-based; settings: Escherichia coli, ML308225, 18 h, gram negative bacteria; read-out: Antibiotic Activity Gram − (MIC)

See these solved cases before continuing.
| MOLECULE | TGT | MEASUREMENT_TYPE | RECORDED_VALUE |
| --- | --- | --- | --- |
| CN(C)c1cc(CNCc2ccc(C(=O)O)cc2)c(O)c2c1C[C@H]1C[C@H]3[C@H](N(C)C)C(O)=C(C(N)=O)C(=O)[C@@]3(O)C(O)=C1C2=O | E. coli mL308 225 | MIC | > 4 µg/mL |
| C[C@H]1c2c(-c3ccccc3)cc(-c3ccccc3)c(O)c2C(=O)C2=C(O)[C@]3(O)C(=O)C(C(N)=O)=C(O)[C@@H](N(C)C)[C@@H]3[C@@H](O)[C@@H]21 | E. coli mL308 225 | MIC | < 4 µg/mL |
| CN(C)c1cc(CNC(=O)C(Cc2ccccc2)N(C)C)c(O)c2c1C[C@H]1C[C@H]3[C@H](N(C)C)C(O)=C(C(N)=O)C(=O)[C@@]3(O)C(O)=C1C2=O (stereo partly drawn) | E. coli mL308 225 | MIC | > 4 µg/mL |
| CC1CN(Cc2cc(N(C)C)c3c(c2O)C(=O)C2=C(O)[C@]4(O)C(=O)C(C(N)=O)=C(O)[C@@H](N(C)C)[C@@H]4C[C@@H]2C3)CC(C)O1 (stereo partly drawn) | E. coli mL308 225 | MIC | < 4 µg/mL |

Batch: MIC for all items listed.
1. CN(C)c1cc(NCc2ccc(C#N)cc2)c(O)c2c1C[C@H]1C[C@H]3[C@H](N(C)C)C(O)=C(C(N)=O)C(=O)[C@@]3(O)C(O)=C1C2=O
2. COc1cccc(C#Cc2cc(N(C)C)c3c(c2O)C(=O)C2=C(O)[C@]4(O)C(=O)C(C(N)=O)=C(O)[C@@H](N(C)C)[C@@H]4C[C@@H]2C3)c1

["> 4 µg/mL", "< 4 µg/mL"]
